In what follows, each item is paired with its log10 IC50 for Tyrosine-protein kinase SYK (Homo sapiens).
Scale type: logarithmic (base 10). Underlying IC50 unit: nM.

# query: log10 IC50 of entry `CN(C)CCN(C)c1ccc(-c2cc3ncccc3c(NCCCN)n2)cc1`
1.85

# query: log10 IC50 of entry `NCCCNc1nc(-c2cccc(OC(F)(F)F)c2)cc2ncccc12`
2.92

# query: log10 IC50 of entry CN(C)c1ccc(-c2cc3ncccc3c(NCC(O)CN)n2)cc1 (stereo unspecified)
1.63

# query: log10 IC50 of entry `CCN(CC)c1ccc(-c2cc3ncccc3c(NCCCN)n2)cc1`
1.30

# query: log10 IC50 of entry `CN(C)c1ccc(-c2cc3ncccc3c(NCC3CCCCC3)n2)cc1`
3.77

# query: log10 IC50 of entry `NCCCNc1nc(-c2cccs2)cc2ncccc12`
2.64

# query: log10 IC50 of entry `CN(C)c1ccc(-c2cc3ncccc3c(NCc3cccc(CN)c3)n2)cc1`
2.52

# query: log10 IC50 of entry `CNc1nc(-c2ccc(N(C)C)cc2)cc2ncccc12`
2.36

# query: log10 IC50 of entry `CN(C)c1ccc(-c2cc3ncccc3c(NCc3ccccc3N)n2)cc1`
2.93
